System: HCV 1b_Huh-Luc/Neo-ET cell line persistently expressing a bicistronic genotype 1b replicon in Huh 7 cells
method: HCV replicon assay (luciferase readout)
Type: cell-based
applied conditions: Hepatitis C virus, Huh-7, 72 h, read-out: Inhibition of HCV genotype 1b
Items are presented alongside their recorded EC50.

As a guide, the following entries are already answered.
>  <structure string>
CC(C)[C@H](NC(=O)N1CCC(C)(O)CC1)C(=O)N1CCC[C@H]1c1ncc(-c2ccc(C#Cc3ccc(-c4cnc([C@@H]5CCCN5C(=O)[C@@H](NC(=O)N5CCC(C)(O)CC5)C(C)C)[nH]4)cc3)cc2)[nH]1

>  <EC50>
0.01 to 0.999 µM

$$$$
>  <structure string>
CC(C)[C@@H](NC(=O)OC(C)(C)C)C(=O)N1CCC[C@H]1C(=O)NCc1ccc(C#Cc2cnc([C@@H]3CCCN3C(=O)[C@H](NC(=O)OC(C)(C)C)C(C)C)[nH]2)cc1

>  <EC50>
0.01 to 0.999 µM

$$$$

Input COC(=O)N[C@@H](C(=O)N1CCC[C@H]1c1ncc(-c2ccc(C#Cc3ccc(-c4cnc([C@@H]5CCCN5C(=O)[C@H](NC(=O)N5CCOCC5)c5ccccc5)[nH]4)cc3)cc2)[nH]1)c1ccccc1 , output reported EC50. < 0.001 µM

// provenance: patent US8865756B2
